Items are presented alongside their recorded Emax.
- SUBJECT_OF_TEST: F508del (Homo sapiens, UniProt P13569, DEL508-508)
- Construct: expressed in transfected cells
- Sequence (P13569 with tags, fused parts or gaps DEL508-508): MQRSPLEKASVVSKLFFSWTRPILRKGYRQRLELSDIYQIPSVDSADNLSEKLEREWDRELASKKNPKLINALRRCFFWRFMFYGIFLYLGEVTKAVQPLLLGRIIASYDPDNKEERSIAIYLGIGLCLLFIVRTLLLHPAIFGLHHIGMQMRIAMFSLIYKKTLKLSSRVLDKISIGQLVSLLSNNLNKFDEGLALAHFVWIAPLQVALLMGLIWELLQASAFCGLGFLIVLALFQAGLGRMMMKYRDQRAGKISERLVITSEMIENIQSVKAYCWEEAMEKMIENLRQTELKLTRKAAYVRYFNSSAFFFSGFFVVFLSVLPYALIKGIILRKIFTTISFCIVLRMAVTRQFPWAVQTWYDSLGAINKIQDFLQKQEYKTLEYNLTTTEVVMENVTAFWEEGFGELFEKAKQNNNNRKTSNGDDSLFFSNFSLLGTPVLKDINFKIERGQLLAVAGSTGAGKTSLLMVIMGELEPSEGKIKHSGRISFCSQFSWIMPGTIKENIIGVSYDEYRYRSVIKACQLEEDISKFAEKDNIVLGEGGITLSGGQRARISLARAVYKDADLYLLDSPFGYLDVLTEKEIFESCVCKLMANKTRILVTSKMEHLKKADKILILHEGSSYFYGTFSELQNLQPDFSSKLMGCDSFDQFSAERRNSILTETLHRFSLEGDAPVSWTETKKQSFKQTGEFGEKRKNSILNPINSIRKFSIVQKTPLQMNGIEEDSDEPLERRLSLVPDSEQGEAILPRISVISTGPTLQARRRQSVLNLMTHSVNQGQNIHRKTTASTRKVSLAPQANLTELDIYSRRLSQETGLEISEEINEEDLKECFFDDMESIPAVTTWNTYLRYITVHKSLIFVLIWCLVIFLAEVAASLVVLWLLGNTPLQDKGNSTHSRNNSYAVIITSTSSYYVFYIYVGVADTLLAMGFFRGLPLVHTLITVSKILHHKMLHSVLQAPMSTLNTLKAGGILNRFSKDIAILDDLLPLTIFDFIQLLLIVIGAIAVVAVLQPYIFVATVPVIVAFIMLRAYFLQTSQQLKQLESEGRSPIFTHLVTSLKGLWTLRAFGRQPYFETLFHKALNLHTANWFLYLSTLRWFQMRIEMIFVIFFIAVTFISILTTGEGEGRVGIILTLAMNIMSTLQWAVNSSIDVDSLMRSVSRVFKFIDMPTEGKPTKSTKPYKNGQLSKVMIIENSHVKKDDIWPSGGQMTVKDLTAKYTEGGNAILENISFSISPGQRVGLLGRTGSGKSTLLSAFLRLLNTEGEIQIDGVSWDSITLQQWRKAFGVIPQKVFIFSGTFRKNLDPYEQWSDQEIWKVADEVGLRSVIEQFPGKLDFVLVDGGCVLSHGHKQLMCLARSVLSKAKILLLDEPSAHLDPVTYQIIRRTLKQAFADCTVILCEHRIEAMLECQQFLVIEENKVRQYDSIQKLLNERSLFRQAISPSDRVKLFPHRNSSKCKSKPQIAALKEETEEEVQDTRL
- METHOD: Membrane potential optical assay (FRET voltage-sensor dyes), identification of correction compounds
- Format: cell-based
- EXPERIMENTAL_PARAMETERS: maximum efficacy; NIH3T3 cells stably expressing F508del; procedures described above; read-out: Max Efficacy
MEASURE: Emax

>  <COMPOUND>
CCOc1cccc2c1CN(CC(C)(C)C)C2(C)C(=O)NS(=O)(=O)c1cccc(=O)[nH]1 (stereo not shown)

>  <REPORTED_RESULT>
≤ 30%

$$$$
>  <COMPOUND>
CC(C)COc1cc(F)cc(-c2ccc(C(=O)NS(=O)(=O)c3cccc(N)n3)c3nc(C(F)(F)F)cn23)c1

>  <REPORTED_RESULT>
30 to 80%

$$$$
>  <COMPOUND>
COc1nc(-c2cc(F)cc(OCC(C)C)c2)ccc1C(=O)NS(=O)(=O)c1cccc(N)n1

>  <REPORTED_RESULT>
30 to 80%

$$$$
>  <COMPOUND>
CC(C)COc1cc(F)cc(-c2ccc(C(=O)NS(=O)(=O)c3cccc(N)n3)c(OC(C)C)n2)c1

>  <REPORTED_RESULT>
> 80%

$$$$
>  <COMPOUND>
CCN(CC)c1nc(-c2cc(F)cc(OCC(C)C)c2)ccc1C(=O)NS(=O)(=O)c1cccc(N)n1

>  <REPORTED_RESULT>
> 80%

$$$$
>  <COMPOUND>
CC(C)COc1cc(F)cc(-c2ccc(C(=O)NS(=O)(=O)c3cccc(N)n3)c(NC(C)(C)C)n2)c1

>  <REPORTED_RESULT>
> 80%

$$$$
>  <COMPOUND>
CC(C)(C)COc1nc(C(C)(C)C)ccc1C(=O)NS(=O)(=O)c1cccc(N)n1

>  <REPORTED_RESULT>
30 to 80%

$$$$
